# key: entry, value: inhibition of growth at 10 µM
- Tested on: CCRF-CEM
- Method: Growth inhibition of human CCRF-CEM cells at 10^-5 M incubated for 48 hrs by sulforhodamine B assay
- Type: functional
- Conditions Used: read-out: GI
Your answer is read as %, so omit the unit and give the number.

Compound	inhibition of growth at 10 µM, %
O=[N+]([O-])c1cccc(C2c3sc4ccc(Cl)cc4c3N=C3NN=NN32)c1 (stereo not drawn)	-11.4
O=C1/C(=C\c2ccc3ccccc3c2)Sc2ccc(Cl)cc21	-2.13
NC(=O)CSC1=Nc2c(sc3ccc(Cl)cc23)C(c2cccc([N+](=O)[O-])c2)N1 (stereo not drawn)	-22
S=C1Nc2c(sc3ccc(Cl)cc23)C(c2cccc(Br)c2)N1 (stereo not drawn)	-16.1
CCOC(=O)CSC1=Nc2c(sc3ccc(Cl)cc23)C(c2cccc([N+](=O)[O-])c2)N1 (stereo not drawn)	-8.55
O=C1Nc2c(sc3ccc(Cl)cc23)C(c2ccc3ccccc3c2)N1 (stereo not drawn)	-13.3

Given O=[N+]([O-])c1cccc(C2c3sc4ccc(Cl)cc4c3N=C3NN=CN32)c1 (stereo not drawn) , state its recorded inhibition of growth at 10 µM. -13.4

State the recorded inhibition of growth at 10 µM for this entry: O=C1/C(=C\c2cccc([N+](=O)[O-])c2)Sc2ccc(Cl)cc21 -0.32
